system: Mus musculus; test: Toxicity in Swiss albino mouse assessed as loss of righting reflex at 100 mg/kg, sc measured up to 20 mins; type: organism-based; parameters: dose 100 mg/kg, route subcutaneous; conditions: in vivo
Please respond with reported Activity for every item in the list.
Give bare numbers, in %.

Could you report Activity for every entry in the following list?
1. CCCOc1cc(C)c(N(CC)C(=O)CN)c(C)c1.O=C(O)C(=O)O
2. Cc1cccc(C)c1NC(=O)CN [GLYCINEXYLIDIDE]
3. CCCOc1cc(C)c(N(C)C(=O)CN)c(C)c1.O=C(O)C(=O)O
4. CCN(CC)CC(=O)Nc1c(C)cccc1C
5. Cc1cccc(C)c1NC(=O)C(C)N (configuration not stated) [TOCAINIDE]
6. CCCCOc1cc(C)c(N(C)C(=O)CN)c(C)c1.O=C(O)C(=O)O
7. CCC(N)C(=O)N(CC)c1c(C)cccc1C.Cl (configuration not stated)

0
0
0
100
0
0
0
